biological target: AT2R (Rattus norvegicus (Rat), UniProt P35351); assay: AT2R ex vivo autoradiography receptor occupancy in rat adrenal sections after oral dosing; conditions: plasma concentration plotted vs % receptor occupancy, rat
Sequence (P35351 whole entry): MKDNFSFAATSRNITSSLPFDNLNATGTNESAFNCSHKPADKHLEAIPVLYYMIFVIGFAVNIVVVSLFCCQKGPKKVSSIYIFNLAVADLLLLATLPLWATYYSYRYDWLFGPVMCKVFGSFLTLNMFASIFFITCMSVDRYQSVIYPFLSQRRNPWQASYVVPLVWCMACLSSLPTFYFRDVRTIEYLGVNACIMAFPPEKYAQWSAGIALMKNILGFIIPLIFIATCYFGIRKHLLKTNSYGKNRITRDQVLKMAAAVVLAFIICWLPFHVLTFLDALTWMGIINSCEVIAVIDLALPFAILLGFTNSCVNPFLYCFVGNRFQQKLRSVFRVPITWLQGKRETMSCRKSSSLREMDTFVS
outcome-measure: IC50 (nM)
Number in nM, nothing else.

| compound | tested-system | reading-unit | IC50 |
| --- | --- | --- | --- |
| CCCCCN(C)C(=O)N1CCC(CC(=O)N(c2ccccc2)c2ccccc2)(C(=O)O)CC1 | AT2R (Rattus norvegicus (Rat), UniProt P35351) | nM | 5.64 |
| CN(C(=O)N1CCC(CC(=O)N(c2ccccc2)C(C2CC2)C2CC2)(C(=O)O)CC1)c1ccc(F)cc1 | AT2R (Rattus norvegicus (Rat), UniProt P35351) | nM | 0.114 |
| O=C(N1CCC(CC(=O)N(c2ccccc2)c2ccccc2)(C(=O)O)CC1)N1CCc2ccccc21 | AT2R (Rattus norvegicus (Rat), UniProt P35351) | nM | 0.821 |
| COc1ccc2c(c1OCc1ccccc1)C[C@@H](C(=O)O)N(C(=O)C(c1ccccc1)c1ccccc1)C2 [EMA401, Olodanrigan, reference compound] | AT2R (Rattus norvegicus (Rat), UniProt P35351) | nM | 0.483 |

Qu. Using the record for O=C(CC1(C(=O)O)CCN(c2ccccn2)CC1)N(c1ccccc1)C1CCCC(F)(F)C1 (single isomer, unassigned) [Example 74B] , report its IC50.
Ans. 1.58

* * *

target: recombinant human angiotensin-II receptor subtype 2 (hAT2R) (Homo sapiens (Human), UniProt P50052); test: Competitive radioligand binding assay (SPA), hAT2R HEK293 membranes; settings: [125I]-Tyr4-Angiotensin-II, read-out: AT2R Ki
Sequence (P50052 whole entry): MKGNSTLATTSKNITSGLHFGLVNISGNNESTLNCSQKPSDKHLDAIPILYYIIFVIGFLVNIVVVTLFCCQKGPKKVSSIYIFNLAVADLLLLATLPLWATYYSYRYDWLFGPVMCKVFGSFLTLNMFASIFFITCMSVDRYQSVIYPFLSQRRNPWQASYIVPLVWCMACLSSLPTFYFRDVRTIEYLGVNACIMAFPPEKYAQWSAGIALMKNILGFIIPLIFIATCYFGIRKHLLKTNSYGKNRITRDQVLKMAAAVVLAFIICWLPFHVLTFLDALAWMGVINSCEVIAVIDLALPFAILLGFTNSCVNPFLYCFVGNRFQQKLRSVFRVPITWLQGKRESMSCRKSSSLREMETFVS
# pKi per record follows
Field pKi (float): negative decimal logarithm of the concentration in molar.

| compound | pKi |
| --- | --- |
| CN(C(=O)N1CCC(CC(=O)N(c2ccccc2)C2CCCCC2(F)F)(C(=O)O)CC1)c1ccc(F)cc1 (racemic) [Example 10] | 8.81 |
| CN(C(=O)N1CCC(CC(=O)N(c2cccc(F)c2)C2CCCCC2)(C(=O)O)CC1)c1ccc(F)cc1 [compound 27] | 9.40 |
| CN(C(=O)N1CCC(CC(=O)N(c2ccccc2)C2CCC(F)(F)CC2)(C(=O)O)CC1)c1ccc(F)cc1 [Example 8] | 8.52 |

Consider now this further compound.
Qu. Find the recorded pKi belonging to O=C(CC1(C(=O)O)CCN(C(=O)C2(c3ccccc3F)CC2)CC1)N(c1ccccc1)C1CCCC(F)(F)C1 (racemic) [Example 66] and report it.
Ans. 9.21

* * *

target: recombinant human angiotensin-II receptor subtype 2 (hAT2R) (Homo sapiens (Human), UniProt P50052); test: Competitive radioligand binding assay (SPA), hAT2R HEK293 membranes; conditions: [125I]-Tyr4-Angiotensin-II, read-out: AT2R Ki
outcome-measure: pKi
Quick note: pKi values are minus log10 of concentrations in mol/L.

| compound | outcome-measure | observed-result |
| --- | --- | --- |
| N#Cc1ccc2c(c1)N(C(=O)N1CCC(CC(=O)N(c3ccccc3)C3CCCC(F)(F)C3)(C(=O)O)CC1)CC2 (racemic) [Example 47] | pKi | 8.87 |
| CN(C(=O)N1CCC(CC(=O)N(c2cccc(F)c2)C2CCCC(F)(F)C2)(C(=O)O)CC1)c1ccccc1 (racemic) [Example 53] | pKi | 9.47 |
| CCCCCn1c(Br)nnc1N1CCC(CC(=O)N(c2ccccc2)c2ccccc2)(C(=O)O)CC1 [Example 4] | pKi | 8.29 |

Qu. Given the entry CCC(C1CC1)N(C(=O)CC1(C(=O)O)CCN(C(=O)N(C)c2ccc(F)cc2)CC1)c1ccccc1 (racemic) [Example 17] , report its measured pKi.
Ans. 8.24

* * *

biological target: recombinant human angiotensin-II receptor subtype 2 (hAT2R) (Homo sapiens (Human)); assay: Competitive radioligand binding assay (SPA), hAT2R HEK293 membranes; conditions: [125I]-Tyr4-Angiotensin-II, read-out: AT2R Ki
Reported pKi by item:
Please note pKi is a logarithmic value: minus log10 of concentration in mol/L. Answer with that number alone.

| molecule | observed-result |
| --- | --- |
| CC(CC(F)F)N(C(=O)CC1(C(=O)O)CCN(C(=O)N(C)c2ccc(F)cc2)CC1)c1ccccc1 (racemic) [Example 36] | 8.35 |
| O=C(CC1(C(=O)O)CCN(C(=O)N(c2ccc(F)cc2)C2CC2)CC1)N(c1ccccc1)c1ccccc1 [Example 39] | 8.55 |
| CCN(C(=O)N1CCC(CC(=O)N(c2ccccc2)C2CCCCC2)(C(=O)O)CC1)c1ccc(F)cc1 [Example 15] | 8.77 |
| O=C(N1CCC(CC(=O)N(c2ccccc2)C2CCCC(F)(F)C2)(C(=O)O)CC1)N1CCc2ccc(F)cc21 (single isomer, unassigned) [Example 72A] | 8.09 |
| O=C(N1CCC(CC(=O)N(c2cccc(F)c2)c2ccccc2F)(C(=O)O)CC1)N1CCc2ccccc21 [Example 60] | 8.50 |
| CC(C)(C(=O)N1CCC(CC(=O)N(c2ccccc2)C2CCCC(F)(F)C2)(C(=O)O)CC1)c1ccccc1F (racemic) [Example 67] | 8.64 |
| CN(C(=O)N1CCC(CC(=O)N(c2ccccc2)C2CCCOC2)(C(=O)O)CC1)c1ccc(C2CC2)cc1 (single isomer, unassigned) [Example 45B] | 8.57 |
| CN(C(=O)N1CCC(CC(=O)N(c2ccc(F)cc2)C2CCCCC2)(C(=O)O)CC1)c1ccc(F)cc1 [compound 21] | 8.40 |

Qu. Need pKi of O=C(CC1(C(=O)O)CCN(c2ccccn2)CC1)N(c1ccccc1)C1CCCC(F)(F)C1 (single isomer, unassigned) [Example 74B] , thanks.
Ans. 8.89

Qu. What would you report for CN(C(=O)N1CCC(CC(=O)N(c2ccccc2F)c2ccccc2F)(C(=O)O)CC1)c1ccccc1 [Example 46] ?
Ans. 9.39

Qu. Consider next the molecule O=C(CC1(C(=O)O)CCN(C(=O)N(c2ccc(F)cc2)C2CC2)CC1)N(c1ccccc1)C1CCCCC1 [Example 16] in the same way.
Ans. 8.75

Qu. Another molecule: O=C(N1CCC(CC(=O)N(c2ccccc2)C2CCCC(F)(F)C2)(C(=O)O)CC1)N1CCc2ccc(F)cc21 (single isomer, unassigned) [Example 72B]
Ans. 9.42

Qu. CC(C1CC1)N(C(=O)CC1(C(=O)O)CCN(C(=O)N(C)c2ccc(F)cc2)CC1)c1ccccc1 (single isomer, unassigned) [Example 43A] ?
Ans. 8.66

* * *

The entries below come with measured IC80 values attached.
target: AT2R (Rattus norvegicus (Rat)); assay: AT2R ex vivo autoradiography receptor occupancy in rat adrenal sections after oral dosing; set-up: species or system Sprague Dawley rats; settings: plasma concentration plotted vs % receptor occupancy, rat
Report the value in nM with no unit label.

| compound | IC80, nM |
| --- | --- |
| COc1ccc2c(c1OCc1ccccc1)C[C@@H](C(=O)O)N(C(=O)C(c1ccccc1)c1ccccc1)C2 [EMA401, Olodanrigan, reference compound] | 3.03 |
| O=C(CC1(C(=O)O)CCN(c2ccccn2)CC1)N(c1ccccc1)C1CCCC(F)(F)C1 (single isomer, unassigned) [Example 74B] | 3.82 |
| CN(C(=O)N1CCC(CC(=O)N(c2ccccc2)C(C2CC2)C2CC2)(C(=O)O)CC1)c1ccc(F)cc1 | 0.449 |

Qu. Which value of IC80 has been reported for CCCCCN(C)C(=O)N1CCC(CC(=O)N(c2ccccc2)c2ccccc2)(C(=O)O)CC1 in the records?
Ans. 22.6

Qu. Now the same for O=C(N1CCC(CC(=O)N(c2ccccc2)c2ccccc2)(C(=O)O)CC1)N1CCc2ccccc21
Ans. 3.34

* * *

The following compounds are shown together with reported Ki values.
biological target: recombinant human angiotensin-II receptor subtype 2 (hAT2R) (Homo sapiens (Human), UniProt P50052); experiment: Competitive radioligand binding assay (SPA), hAT2R HEK293 membranes; conditions: [125I]-Tyr4-Angiotensin-II, read-out: AT2R Ki
In your response, put the unit directly after the numeric value.

| compound | Ki |
| --- | --- |
| CC(C(=O)N1CCC(CC(=O)N(c2ccccc2)C2CCCC(F)(F)C2)(C(=O)O)CC1)c1cccc(F)c1 (racemic) | 1.19 nM |
| O=C(CC1(C(=O)O)CCN(c2ccccc2)CC1)N(c1ccccc1)C1CCCCC1 | 3.59 nM |
| O=C(Cc1ccccc1F)N1CCC(CC(=O)N(c2ccccc2)C2CCCC(F)(F)C2)(C(=O)O)CC1 (racemic) | 2.55 nM |

Qu. // lookup Ki for Cc1cccc(N(C(=O)CC2(C(=O)O)CCN(C(=O)N(C)c3ccc(F)cc3)CC2)c2ccccc2)c1
Ans. 0.823 nM

* * *

Target: recombinant human angiotensin-II receptor subtype 2 (hAT2R) (Homo sapiens (Human), UniProt P50052)
Test: Competitive radioligand binding assay (SPA), hAT2R HEK293 membranes
Settings: [125I]-Tyr4-Angiotensin-II, read-out: AT2R Ki
Experimental: Compound Solubilization Test and reference compounds were received as dry powder reagents, weighed, and solubilized in 100% DMSO to generate a working stock concentration of 10 mM. […] Protein concentration was determined using a BCA kit (ThermoScientific, Inc.) with bovine serum albumin (BSA) as standard. […]
Reported values of Ki for individual entries
Kindly answer with a numeric value in nM, unit omitted.

| compound | reading-unit | Ki |
| --- | --- | --- |
| CN(C(=O)N1CCC(CC(=O)N(c2ccc(F)cc2)C2CCCC(F)(F)C2)(C(=O)O)CC1)c1ccccc1 (racemic) [Example 54] | nM | 2 |
| Cc1ccccc1N(C(=O)CC1(C(=O)O)CCN(C(=O)N(C)c2ccc(F)cc2)CC1)c1ccccc1 [Example 37] | nM | 0.987 |
| O=C(N1CCC(CC(=O)N(c2ccccc2)C2CCCC(F)(F)C2)(C(=O)O)CC1)N1CCc2c(F)cccc21 (racemic) [Example 71] | nM | 3.14 |
| CN(C(=O)N1CCC(CC(=O)N(c2ccccc2)C2CCCOC2)(C(=O)O)CC1)c1ccc(F)cc1 (racemic) [Example 41] | nM | 16.6 |
| CC(C(=O)N1CCC(CC(=O)N(c2ccccc2)C2CCCC(F)(F)C2)(C(=O)O)CC1)c1ccc(F)cc1 (racemic) [Example 62] | nM | 1.04 |
| O=C(N1CCC(CC(=O)N(c2ccccc2)C2CCCC(F)(F)C2)(C(=O)O)CC1)N1CCc2ccccc21 (single isomer, unassigned) [Example 35A] | nM | 10.8 |
| CN(C(=O)N1CCC(CC(=O)N(c2ccccc2)C2CCCOC2)(C(=O)O)CC1)c1ccc(F)cc1 (single isomer, unassigned) [Example 41B] | nM | 14.7 |
| CN(C(=O)N1CCC(CC(=O)N(c2ccccc2)C2CCCOC2)(C(=O)O)CC1)c1ccc(F)cc1 (single isomer, unassigned) [Example 41A] | nM | 8.89 |
| O=C(c1ccc(C2CC2)cc1)N1CCC(CC(=O)N(c2ccccc2)C2CCCC(F)(F)C2)(C(=O)O)CC1 (racemic) [Example 70] | nM | 9.39 |
| CC(C1CC1)N(C(=O)CC1(C(=O)O)CCN(C(=O)N(C)c2ccc(F)cc2)CC1)c1ccccc1 (racemic) [Example 43] | nM | 2.93 |

Qu. Look up Ki for this compound: CN(C(=O)N1CCC(CC(=O)N(c2ccccc2)c2ccc(Cl)cc2)(C(=O)O)CC1)c1ccc(F)cc1 [compound 31]
Ans. 1.89

Qu. Now give it for CC(C)c1ccc(N(C(=O)CC2(C(=O)O)CCN(C(=O)N(C)c3ccc(F)cc3)CC2)c2ccccc2)cc1 [compound 28] too.
Ans. 3.39

Qu. For CC(C)(C)OC(=O)N1CCC(CC(=O)N(c2ccccc2)C2CCCC(F)(F)C2)(C(=O)O)CC1 (single isomer, unassigned) [compound 42] then?
Ans. 3.94
